Measured On: T1, soluble ICAM-1 (Bender MedSystems) (UniProt P05362 28-480, limits assumed)
T1 construct: Bought soluble protein coated on the ELISA plate
Procedure Text: ELISA on plate-coated soluble ICAM-1; reference Msc1A6
Readout Type: fold higher binding affinity than the parental mouse scFv

Data request: Requested field: fold higher binding affinity than the parental mouse scFv. Item: HscI (humanized 1A6 scFv HumI) (scFv, not shown: carboxy-terminal His tag of vector pBAD/pIII A) scFv: DIQMTQSPSSLSASVGDRVTITCRASQSISNNLHWYQQKPGKAPKLLIKHASQSISGVPSRFSGSGSGTDFTLTISSLQPEDFATYYCQQSNSWPYTFGQGTKVEIKRGGGGSGGGGSGGGGSGGGGSEVQLVESGGGLVQPGGSLRLSCAASGFNIKDTYIHWMRQAPGKGLEWVARIDPANDNTIYDPKVQGRFTMSADTSKNTAYLQMNSLRAEDTAVYYCTTSGYWFAYWGQGTLVTVSS
Data returned: > 10 fold

Data request: Please look up its fold higher binding affinity than the parental mouse scFv: HscA (humanized 1A6 scFv HumA) (scFv, also called humanized scFv A; scFV3; not shown: carboxy-terminal His tag of vector pBAD/pIII A) scFv: DIQMTQSPSSLSASVGDRVTITCRASQSISNNLHWYQQKPGKAPKLLIYHASQSISGVPSRFSGSGSGTDFTLTISSLQPEDFATYYCQQSNSWPYTFGQGTKVEIKRGGGGSGGGGSGGGGSGGGGSEVQLVESGGGLVQPGGSLRLSCAASGFNIKDTYIHWVRQAPGKGLEWVARIDPANDNTIYADSVKGRFTISSDDSKNTAYLQMNSLRAEDTAVYYCTDSGYWFAYWGQGTLVTVSS
Data returned: > 10 fold

Data request: Data request, read-out fold higher binding affinity than the parental mouse scFv, for HscD (humanized 1A6 scFv HumD) (scFv, not shown: carboxy-terminal His tag of vector pBAD/pIII A) scFv: DIQMTQSPSSLSASVGDRVTITCRASQSISNNLHWYQQKPGKAPKLLIYHASQSISGVPSRFSGSGSGTDFTLTISSLQPEDFATYYCQQSNSWPYTFGQGTKVEIKRGGGGSGGGGSGGGGSGGGGSEVQLVESGGGLVQPGGSLRLSCAASGFNIKDTYIHWVRQAPGKGLEWVARIDPANDNTIYADSVKGRFTISSDDSKNTAYLQMNSLRAEDTAVYYCTTSGYWFAYWGQGTLVTVSS
Data returned: > 10 fold

Data provenance is patent US20140308269A1.
